tgt: Trypanothione reductase (Trypanosoma cruzi, UniProt P28593)
Sequence (P28593 whole entry): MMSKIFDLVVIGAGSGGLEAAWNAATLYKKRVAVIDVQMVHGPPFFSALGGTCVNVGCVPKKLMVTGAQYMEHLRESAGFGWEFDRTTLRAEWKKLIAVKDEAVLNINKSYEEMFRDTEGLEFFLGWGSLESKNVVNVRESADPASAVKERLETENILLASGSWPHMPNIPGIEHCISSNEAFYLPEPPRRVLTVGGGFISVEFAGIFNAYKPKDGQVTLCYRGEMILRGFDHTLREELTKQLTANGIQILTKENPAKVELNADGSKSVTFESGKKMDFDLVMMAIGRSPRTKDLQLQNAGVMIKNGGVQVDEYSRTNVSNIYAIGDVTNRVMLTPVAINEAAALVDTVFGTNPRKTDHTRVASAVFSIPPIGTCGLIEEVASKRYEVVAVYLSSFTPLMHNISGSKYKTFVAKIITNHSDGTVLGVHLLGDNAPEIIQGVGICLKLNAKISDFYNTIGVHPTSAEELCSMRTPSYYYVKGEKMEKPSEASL

molecule: C[N+]1(Cc2ccccc2)CCC(NC=C2C(=O)NC(=O)N(C3CCCCC3)C2=O)CC1 (stereo unspecified)
IC50 (µM): 45.2

Entry source: BindingDB's records for doi:10.1021/jm801306g
